Reported IC50 for target or system UniProtKB Q9NWZ3, by entry.

The following molecules have reported results that may help.
In [3]: df
Out[3]:
                                   molecule            system  reported_measurement
0  COc1ccc2c(c1)nc1n2CC(O)CCOc2ccc(=O)n(n2)Cc2cccc(c2)C(=O)N1 (stereo not shown)  UniProtKB Q9NWZ3              < 100 nM
1  O=C1Nc2nc3ccccc3n2C[C@H](O)[C@H]2CCCN(C2)c2ccc(=O)n(n2)Cc2cccc1c2 (stereo in doubt) [Compound 32b]  UniProtKB Q9NWZ3              < 100 nM
2  Cc1cc(=O)n2nc1-c1cccc(c1)CCn1c(nc3ccccc31)NC(=O)c1cccc(c1)C2  UniProtKB Q9NWZ3              < 100 nM

Reported UniProtKB Q9NWZ3 IC50 for item O=C1Nc2nc3ccccc3n2Cc2ccc(Cl)c(c2)-c2ccc(=O)n(n2)Cc2cccc1c2 was 100 to 1000 nM

###

# system: IRAK4 (Homo sapiens (Human))
# Sequence (Q9NWZ3 whole entry): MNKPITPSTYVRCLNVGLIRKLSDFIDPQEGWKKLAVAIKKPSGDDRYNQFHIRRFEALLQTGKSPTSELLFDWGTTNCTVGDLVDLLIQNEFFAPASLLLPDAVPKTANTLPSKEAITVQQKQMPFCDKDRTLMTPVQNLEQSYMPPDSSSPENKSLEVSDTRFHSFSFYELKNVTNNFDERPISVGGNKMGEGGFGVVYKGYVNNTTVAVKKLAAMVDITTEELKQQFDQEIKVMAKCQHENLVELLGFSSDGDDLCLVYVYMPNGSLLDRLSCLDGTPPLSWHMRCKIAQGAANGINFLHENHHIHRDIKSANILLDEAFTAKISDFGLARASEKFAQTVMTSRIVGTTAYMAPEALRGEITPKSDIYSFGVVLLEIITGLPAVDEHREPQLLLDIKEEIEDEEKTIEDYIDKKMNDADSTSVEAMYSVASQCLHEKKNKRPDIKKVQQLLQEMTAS
measured-quantity: IC50

Would you please look over these solved cases?
>>> print(df.to_string())
                                smiles_code                        system  reported_measurement
0  O=C1Nc2nc3cc(O)ccc3n2Cc2cccc(c2)-c2ccc(=O)n(n2)Cc2cccc1c2  IRAK4 (Homo sapiens (Human))        100 to 1000 nM
1  O=C1Nc2nc3ccccc3n2Cc2cc(ccc2O)-c2ccc(=O)n(n2)Cc2cccc1c2  IRAK4 (Homo sapiens (Human))              < 100 nM
2  COc1cc2nc3n(c2cc1OC)CCn1cc(cn1)-c1ccc(=O)n(n1)Cc1cccc(c1)C(=O)N3  IRAK4 (Homo sapiens (Human))              < 100 nM

Now for another entry.
Looking up O=C1Nc2nc3ccccc3n2Cc2cccc(c2)-c2ccc(=O)n(n2)Cc2cccc1c2 , I found its IC50 recorded as < 100 nM

###

The listing below reports IC50 for compounds tested on IRAK1 (Homo sapiens (Human), UniProt P51617).
Sequence (P51617 194-712): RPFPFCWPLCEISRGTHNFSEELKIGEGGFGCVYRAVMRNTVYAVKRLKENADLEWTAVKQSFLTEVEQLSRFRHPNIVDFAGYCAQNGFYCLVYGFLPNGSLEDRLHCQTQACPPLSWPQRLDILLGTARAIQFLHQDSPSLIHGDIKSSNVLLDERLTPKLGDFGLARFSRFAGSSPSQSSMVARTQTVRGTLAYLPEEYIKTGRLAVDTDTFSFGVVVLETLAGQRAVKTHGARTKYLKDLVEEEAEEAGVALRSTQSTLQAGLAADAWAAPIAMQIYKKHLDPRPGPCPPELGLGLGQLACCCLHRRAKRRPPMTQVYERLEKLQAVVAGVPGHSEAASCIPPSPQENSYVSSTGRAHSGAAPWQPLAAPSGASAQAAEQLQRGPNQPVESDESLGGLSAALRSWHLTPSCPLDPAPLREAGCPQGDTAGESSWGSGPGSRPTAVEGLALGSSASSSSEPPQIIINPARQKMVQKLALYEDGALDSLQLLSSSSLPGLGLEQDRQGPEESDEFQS

                                   compound  reported_measurement
0  O=C1Nc2nc3ccccc3n2Cc2ccc(Cl)c(c2)-c2ccc(=O)n(n2)Cc2cccc1c2 [Compound 13]              < 100 nM
1  CC[C@@H]1c2cccc(c2)C(=O)Nc2nc3ccccc3n2Cc2cccc(c2)-c2ccc(=O)n1n2 [Compound 36b]              < 100 nM
2  O=C1Nc2nc3ccccc3n2CCc2cccc(c2)-c2ccc(=O)n(n2)Cc2cccc1c2 [Compound 2]              < 100 nM

Turning to the following compound.
Tested on IRAK1 (Homo sapiens (Human), UniProt P51617), the item COc1ccc2cc1Cn1c(nc3ccccc31)NC(=O)c1cccc(c1)Cn1nc-2ccc1=O [Compound 19] showed IC50 equal to 100 to 1000 nM
